Listed binders paired with reported EC50 group, cGMP in GTM-3 cells
# assay-target: T1, natriuretic peptide receptor-B (human)
# T1 chain: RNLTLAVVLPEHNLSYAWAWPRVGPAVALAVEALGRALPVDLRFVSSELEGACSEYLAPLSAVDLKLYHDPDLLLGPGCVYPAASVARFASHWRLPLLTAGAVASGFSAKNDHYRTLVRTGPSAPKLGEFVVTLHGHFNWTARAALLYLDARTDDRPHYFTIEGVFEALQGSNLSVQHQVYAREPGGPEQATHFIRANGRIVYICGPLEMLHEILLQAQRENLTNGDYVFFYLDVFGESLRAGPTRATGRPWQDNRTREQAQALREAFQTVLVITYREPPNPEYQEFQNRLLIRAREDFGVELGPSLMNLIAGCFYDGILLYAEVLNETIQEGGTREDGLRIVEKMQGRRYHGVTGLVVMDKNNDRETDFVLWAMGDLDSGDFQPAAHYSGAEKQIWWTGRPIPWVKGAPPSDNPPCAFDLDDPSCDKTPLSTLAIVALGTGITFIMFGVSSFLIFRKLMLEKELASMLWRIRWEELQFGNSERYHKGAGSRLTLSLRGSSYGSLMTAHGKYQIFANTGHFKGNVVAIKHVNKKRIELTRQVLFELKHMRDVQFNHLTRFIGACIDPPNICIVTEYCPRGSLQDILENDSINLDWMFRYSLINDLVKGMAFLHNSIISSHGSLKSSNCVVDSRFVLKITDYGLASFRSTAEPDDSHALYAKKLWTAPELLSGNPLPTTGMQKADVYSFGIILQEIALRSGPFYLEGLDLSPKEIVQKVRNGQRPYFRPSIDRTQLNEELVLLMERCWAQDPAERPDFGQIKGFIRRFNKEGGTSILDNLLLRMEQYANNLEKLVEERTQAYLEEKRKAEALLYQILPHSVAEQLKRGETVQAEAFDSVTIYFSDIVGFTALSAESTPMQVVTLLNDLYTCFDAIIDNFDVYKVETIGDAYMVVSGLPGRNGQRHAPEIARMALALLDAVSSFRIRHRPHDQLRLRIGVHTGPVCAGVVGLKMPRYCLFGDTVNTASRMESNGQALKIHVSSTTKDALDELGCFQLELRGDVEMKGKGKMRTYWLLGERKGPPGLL
# assay-method-text: cell-based or functional assay
Numbered stars: 1 amine (or outer) side, 2 acyl side, 3 side chain; on linkers, the order of the positions; unused ones are H or OH. Square brackets hold non-standard residues; d marks the D form. Ends that are not written are not given here. Pro(trans-4-NH2) = O=C([C@@H]1C[C@@H](N[*:3])CN1[*:1])[*:2]; Sni = (S)-nipecotic acid, O=C([C@H]1CCCN([*:1])C1)[*:2]; Gly(2-thienyl) = N[C@H](C(=O)O)c1cccs1; dDap(Me2) = CN(C)C[C@@H](N)C(=O)O; Hyp = O=C(O)[C@@H]1C[C@@H](O)CN1; dAoc(2) = CCCCCC[C@@H](N)C(=O)O; NMeL = CN[C@@H](CC(C)C)C(=O)O; 1888 = not defined here; Che = not defined here; Oct = not defined here; Occ = octanoic acid
measurement-kind: EC50 group, cGMP in GTM-3 cells

• 1888-[dAoc(2)][Sni]FLL[Hyp][NMeL]DRI-NH2 (not fully specified (some residues); printed as 1888-hgl-Sni-Phe-leu-Leu-Hyp-Nml-Asp-Arg-Ile-NH2; reading uncertain) [JAL-1837] = ≤ 5 µM
• [Oct][Sni]F[dDap(Me2)]L[Hyp][NMeL]DRI-NH2 (reading uncertain; also: printed as Oct-Sni-Phe-dap(Me2)-Leu-Hyp-Nml-Asp-Arg-Ile-NH2) [JAL-1429] = ≤ 1 µM
• [Occ][Sni]F[dL]L[Pro(trans-4-NH2)][NMeL][Gly(2-thienyl)]P[Che] (reading uncertain; also: printed as Occ-Sni-Phe-leu-Leu-Tap-Nml-(BB726)-Pro-Che) [JAL-1676] = ≤ 5 µM
• XXFGLKLDRI (HELM PEPTIDE1{[CCCCCC(=O)[*:2]].[O=C(c1cccc(CN[*:1])c1)[*:2]].F.G.L.K.L.D.R.I.[am]}$$$$V2.0; SMILES CCCCCC(=O)NCc1cccc(C(=O)N[C@@H](Cc2ccccc2)C(=O)NCC(=O)N[C@@H](CC(C)C)C(=O)N[C@@H](CCCCN)C(=O)N[C@@H](CC(C)C)C(=O)N[C@@H](CC(=O)O)C(=O)N[C@@H](CCCNC(=N)N)C(=O)N[C@H](C(N)=O)[C@@H](C)CC)c1) [JAL-0647] = ≤ 15 µM
